TEST_TARGET: Fatty acid-binding protein, adipocyte (Homo sapiens)
PROCEDURE_TEXT: Displacement of 1,8-ANS from human recombinant FABP4 incubated for 4 mins by fluorescence based analysis
MEASURED_METRIC: IC50 (µM)
Hi! Could you send only the number? It should be in µM, unit omitted.

// query What does the record list as IC50 for CC(C)OC(=O)C(C(=O)C(F)(F)F)c1cc(NS(=O)(=O)c2ccccc2)ccc1O (stereo unspecified) ?
// result 3.5

====

Below, each of the compounds is paired with its reported pIC50 value.
TEST_TARGET: Fatty acid-binding protein, adipocyte (Homo sapiens, UniProt P15090)
Sequence (P15090 whole entry): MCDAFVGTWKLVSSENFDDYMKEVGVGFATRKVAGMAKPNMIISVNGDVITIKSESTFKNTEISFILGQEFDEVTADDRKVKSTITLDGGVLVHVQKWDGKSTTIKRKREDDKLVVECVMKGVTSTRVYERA
PROCEDURE_TEXT: Inhibition of human FABP4
# log scale: pIC50 equals minus log10 of the concentration in mol/L

// query Request - read-out pIC50 | tested on Fatty acid-binding protein, adipocyte (Homo sapiens, UniProt P15090) | compound O=C(O)c1cccc(NS(=O)(=O)c2ccc(Br)c3ccccc23)c1
// result 5.26

// query What do you have for COc1cc(Br)c(C(C)(C)C)cc1S(=O)(=O)Nc1ccccc1C(=O)O ?
// result 5.82
